tested on: Hepatitis C virus; assay: Inhibition of Hepatitis C virus genotype 1b NS3/4A protease A156T mutant; parameters: species or system Hepatitis C virus subtype 1b
The entries below come with measured EC90 values attached.

{"columns": ["compound", "EC90"],
 "data": [
  ["CC[C@@H]1C[C@]1(NC(=O)[C@@H]1C[C@@H]2CN1C(=O)[C@H](C(C)(C)C)NC(=O)OCC(C)(C)CCCCc1cccc3c1CN(C3)C(=O)O2)C(=O)NS(=O)(=O)C1CC1", "> 1 µM"],
  ["CCCC(NC(=O)C1N(C(=O)[C@@H](NC(=O)[C@@H](NC(=O)c2cnccn2)C2CCCCC2)C(C)(C)C)CC12CCCCC2)C(=O)C(=O)NC1CC1 (some centres undefined)", "> 100 µM"],
  ["CCC[C@H](NC(=O)[C@@H]1[C@H]2CCC[C@H]2CN1C(=O)[C@@H](NC(=O)[C@@H](NC(=O)c1cnccn1)C1CCCCC1)C(C)(C)C)C(=O)C(=O)NC1CC1", "> 100 µM"],
  ["CC(C)(C)NC(=O)N[C@H](C(=O)N1C[C@H]2[C@@H]([C@H]1C(=O)NC(CC1CCC1)C(=O)C(N)=O)C2(C)C)C(C)(C)C (some centres undefined) [BOCEPREVIR]", "> 100 µM"]
]}

----------
tested on: Hepatitis C virus; assay: Inhibition of Hepatitis C virus genotype 1b wild type NS3/4A protease; set-up: species or system Hepatitis C virus subtype 1b

{"columns": ["compound", "EC50 / nM"],
 "data": [
  ["CCC[C@H](NC(=O)[C@@H]1[C@H]2CCC[C@H]2CN1C(=O)[C@@H](NC(=O)[C@@H](NC(=O)c1cnccn1)C1CCCCC1)C(C)(C)C)C(=O)C(=O)NC1CC1", 60],
  ["CC[C@@H]1C[C@]1(NC(=O)[C@@H]1C[C@@H]2CN1C(=O)[C@H](C(C)(C)C)NC(=O)OCC(C)(C)CCCCc1cccc3c1CN(C3)C(=O)O2)C(=O)NS(=O)(=O)C1CC1", 6.2],
  ["CCCC(NC(=O)C1N(C(=O)[C@@H](NC(=O)[C@@H](NC(=O)c2cnccn2)C2CCCCC2)C(C)(C)C)CC12CCCCC2)C(=O)C(=O)NC1CC1 (stereo partly drawn)", 780]
]}

----------
system: Hepatitis C virus; experiment: Antiviral activity against Hepatitis C virus infected in human HuH7 cells assessed as viral RNA replication; type: functional, organism-based, Hepacivirus hominis; conditions: Huh-7
value.type: EC50

{"columns": ["compound", "observed.result"],
 "data": [
  ["C=CCNC(=O)C(=O)C(CCC)NC(=O)C1CCN1C(=O)[C@@H](NC(=O)[C@@H](NC(=O)c1cnccn1)C1CCCCC1)C(C)(C)C (stereo partly drawn)", "> 10 µM"],
  ["CCCC(NC(=O)C1CCN1C(=O)[C@@H](NC(=O)[C@@H](NC(=O)c1cnccn1)C1CCCCC1)C(C)(C)C)C(=O)C(=O)NCCF (stereo partly drawn)", "> 10 µM"],
  ["CCCC(NC(=O)C1N(C(=O)[C@@H](NC(=O)NC2CCCC2)C(C)(C)C)CC12Cc1ccccc1C2)C(=O)C(=O)NC1CC1 (stereo partly drawn)", "> 10 µM"]
]}

Values from ChEMBL document CHEMBL2440035
